These data points were gathered from ChEMBL document CHEMBL3808348.

# targetUnderTest: UniProt P12931
# Sequence (P12931 2-536 limits assumed): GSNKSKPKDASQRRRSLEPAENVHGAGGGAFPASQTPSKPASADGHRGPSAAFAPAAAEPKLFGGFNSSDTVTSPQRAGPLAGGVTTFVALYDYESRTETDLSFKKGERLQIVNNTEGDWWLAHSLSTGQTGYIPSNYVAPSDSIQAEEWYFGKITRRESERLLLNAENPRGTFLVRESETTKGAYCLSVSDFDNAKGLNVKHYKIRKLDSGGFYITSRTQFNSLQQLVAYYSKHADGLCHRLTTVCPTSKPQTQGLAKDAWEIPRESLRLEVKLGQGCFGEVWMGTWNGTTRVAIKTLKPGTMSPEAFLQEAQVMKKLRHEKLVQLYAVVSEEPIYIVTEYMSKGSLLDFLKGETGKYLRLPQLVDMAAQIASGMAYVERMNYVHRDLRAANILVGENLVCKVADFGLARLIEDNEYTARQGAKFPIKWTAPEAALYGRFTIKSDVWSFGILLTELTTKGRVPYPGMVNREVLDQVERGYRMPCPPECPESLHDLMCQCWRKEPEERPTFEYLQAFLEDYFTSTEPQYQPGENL
# assayProcedure: Inhibition of full length His-tagged human recombinant cSRC expressed in baculovirus using Fluorescein-Poly GT as substrate at 100 nM
quantityName: inhibition (%)

Illustrative cases are given below, each with its answer.
COC(=O)c1cc2cc(CCc3cc(NC(=O)c4ccc(CN5CCC(N(C)C)C5)c(C(F)(F)F)c4)ccc3C)cnc2[nH]1 (configuration not stated)    101
COC(=O)c1cc2cc(NCc3cc(NC(=O)c4ccnc(C)c4)ccc3C)cnc2[nH]1    51
COC(=O)c1cc2cc(NCc3cc(NC(=O)c4ccnc(C(F)(F)F)c4)ccc3C)cnc2[nH]1    42
CNC(=O)c1cc2cc(NCc3cc(NC(=O)c4ccc(CN5CCN(C)CC5)cc4)ccc3C)cnc2[nH]1    98
COC(=O)c1cc2cc(NCc3cc(NC(=O)c4ccccc4OC)ccc3C)cnc2[nH]1    78

(I) COC(=O)c1cc2cc(NCc3cc(NC(=O)c4cc[nH]c4)ccc3C)cnc2[nH]1
(II) CC(=O)c1cc2cc(NCc3cc(NC(=O)c4ccc(CN5CCN(C)CC5)cc4)ccc3C)cnc2[nH]1
Please compare: I and II . Report which one has the smaller inhibition value. Kindly give the label for the entry you pick.
I

====

# targetUnderTest: Tyrosine-protein kinase Lyn (Homo sapiens)
# Sequence (P07948 whole entry): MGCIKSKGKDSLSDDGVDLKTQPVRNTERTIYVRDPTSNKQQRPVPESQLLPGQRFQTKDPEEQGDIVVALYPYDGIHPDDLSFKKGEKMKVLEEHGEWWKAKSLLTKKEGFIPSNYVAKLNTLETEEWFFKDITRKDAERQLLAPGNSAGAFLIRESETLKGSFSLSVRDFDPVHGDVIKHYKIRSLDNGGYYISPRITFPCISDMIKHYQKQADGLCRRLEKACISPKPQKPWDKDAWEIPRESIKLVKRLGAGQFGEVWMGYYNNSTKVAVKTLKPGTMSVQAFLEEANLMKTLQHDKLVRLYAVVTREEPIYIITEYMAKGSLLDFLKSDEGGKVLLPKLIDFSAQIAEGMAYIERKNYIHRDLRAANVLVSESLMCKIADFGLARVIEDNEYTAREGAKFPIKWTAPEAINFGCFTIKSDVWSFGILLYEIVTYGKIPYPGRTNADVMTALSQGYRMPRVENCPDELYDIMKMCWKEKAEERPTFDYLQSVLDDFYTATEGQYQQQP
# assayProcedure: Inhibition of GST-tagged full length human recombinant LYNA expressed in baculovirus using Fluorescein-Poly GT as substrate
quantityName: IC50 (nM)
Give just the numeric value; nM need not be written.

Memo: `COC(=O)c1cc2cc(NCc3cc(NC(=O)c4cc(-n5cnc(C)c5)cc(C(F)(F)F)c4)ccc3C)cnc2[nH]1` , reported IC50: 37

====

# targetUnderTest: Platelet-derived growth factor receptor alpha (Homo sapiens, UniProt P16234)
# Sequence (P16234 whole entry): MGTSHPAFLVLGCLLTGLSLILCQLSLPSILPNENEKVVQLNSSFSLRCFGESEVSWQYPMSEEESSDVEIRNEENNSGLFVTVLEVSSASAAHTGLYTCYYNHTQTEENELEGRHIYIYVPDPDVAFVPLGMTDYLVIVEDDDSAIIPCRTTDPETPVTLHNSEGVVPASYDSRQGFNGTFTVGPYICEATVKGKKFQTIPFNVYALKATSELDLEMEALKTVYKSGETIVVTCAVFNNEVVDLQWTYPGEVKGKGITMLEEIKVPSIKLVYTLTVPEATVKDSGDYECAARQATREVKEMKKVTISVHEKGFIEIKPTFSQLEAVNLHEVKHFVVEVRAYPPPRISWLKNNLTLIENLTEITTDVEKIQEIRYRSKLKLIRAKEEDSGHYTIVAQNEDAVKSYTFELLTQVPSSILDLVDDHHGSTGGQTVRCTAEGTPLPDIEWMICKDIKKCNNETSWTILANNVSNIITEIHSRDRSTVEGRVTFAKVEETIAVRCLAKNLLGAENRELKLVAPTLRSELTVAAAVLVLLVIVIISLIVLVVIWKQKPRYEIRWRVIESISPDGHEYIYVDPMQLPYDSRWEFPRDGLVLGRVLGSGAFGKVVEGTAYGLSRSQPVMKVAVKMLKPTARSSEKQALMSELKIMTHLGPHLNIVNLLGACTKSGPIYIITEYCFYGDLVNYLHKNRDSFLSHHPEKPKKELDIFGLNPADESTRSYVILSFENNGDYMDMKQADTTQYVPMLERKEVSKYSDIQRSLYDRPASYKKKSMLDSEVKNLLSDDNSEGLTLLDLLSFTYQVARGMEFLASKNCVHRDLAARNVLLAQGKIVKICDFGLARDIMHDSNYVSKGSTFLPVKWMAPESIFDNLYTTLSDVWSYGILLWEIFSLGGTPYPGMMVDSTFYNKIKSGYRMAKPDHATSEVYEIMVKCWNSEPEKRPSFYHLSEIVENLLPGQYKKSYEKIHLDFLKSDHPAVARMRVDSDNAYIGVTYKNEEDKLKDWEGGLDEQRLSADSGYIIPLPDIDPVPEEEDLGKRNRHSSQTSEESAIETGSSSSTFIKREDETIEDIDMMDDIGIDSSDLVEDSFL
# assayProcedure: Inhibition of full length GST-tagged human recombinant PDGFRalpha expressed in baculovirus using Fluorescein-Poly GT as substrate at 100 nM
quantityName: inhibition (%)

COC(=O)c1cc2cc(NCc3cc(NC(=O)c4ccc5c(c4)OCO5)ccc3C)cnc2[nH]1    91

(I) COC(=O)c1cc2cc(NCc3cc(NC(=O)c4ccc5[nH]ccc5c4)ccc3C)cnc2[nH]1
(II) COC(=O)c1cc2cc(NC(=O)c3cc(NC(=O)c4ccc(CN5CCN(C)CC5)cc4)ccc3C)cnc2[nH]1
Please compare: I and II . Report which one has the smaller inhibition value. Kindly give the label for the entry you pick.
II

====

# System: HT-29
# assayProcedure: Antiproliferative activity against human HT-29 cells after 72 hrs by MTT assay
# Type: functional, cell-based
# studyConditions: HT-29, 72 h
pEC50: −log10 of the molar value.
quantityName: pEC50

(I) CC(=O)c1cc2cc(CCc3cc(NC(=O)c4ccc(CN5CCC(N(C)C)C5)c(C(F)(F)F)c4)ccc3C)cnc2[nH]1 (configuration not stated)
(II) CC(=O)c1cc2cc(NCc3cc(NC(=O)c4ccc(CN5CCC(N(C)C)C5)c(C(F)(F)F)c4)ccc3C)cnc2[nH]1 (configuration not stated)
Please compare: I and II . Report which one has the smaller pEC50 value. Kindly give the label for the entry you pick.
I

====

# targetUnderTest: Serine/threonine-protein kinase B-raf (Homo sapiens) (UniProt P15056)
# Sequence (P15056 whole entry): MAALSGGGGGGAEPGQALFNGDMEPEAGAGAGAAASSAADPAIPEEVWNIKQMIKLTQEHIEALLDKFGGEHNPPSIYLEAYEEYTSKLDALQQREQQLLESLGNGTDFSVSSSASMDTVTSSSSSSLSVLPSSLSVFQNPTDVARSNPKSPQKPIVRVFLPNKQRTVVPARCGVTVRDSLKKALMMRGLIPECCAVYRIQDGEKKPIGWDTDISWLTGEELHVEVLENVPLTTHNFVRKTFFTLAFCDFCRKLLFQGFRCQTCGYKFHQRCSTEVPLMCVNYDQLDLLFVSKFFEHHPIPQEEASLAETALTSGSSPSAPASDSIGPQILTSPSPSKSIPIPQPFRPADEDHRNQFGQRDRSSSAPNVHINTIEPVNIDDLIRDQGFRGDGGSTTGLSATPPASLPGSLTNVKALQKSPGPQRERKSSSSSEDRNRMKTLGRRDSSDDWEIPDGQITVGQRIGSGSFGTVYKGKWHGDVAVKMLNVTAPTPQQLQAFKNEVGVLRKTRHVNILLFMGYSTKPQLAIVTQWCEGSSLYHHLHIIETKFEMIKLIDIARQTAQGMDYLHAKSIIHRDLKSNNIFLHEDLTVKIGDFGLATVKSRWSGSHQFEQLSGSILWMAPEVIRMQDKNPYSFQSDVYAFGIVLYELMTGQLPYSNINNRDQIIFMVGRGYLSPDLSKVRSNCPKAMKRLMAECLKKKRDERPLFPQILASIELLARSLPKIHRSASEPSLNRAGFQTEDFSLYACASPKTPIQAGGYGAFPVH
# assayProcedure: Inhibition of full length GST-tagged human recombinant BRAF expressed in baculovirus using Fluorescein-MAP2K1 as substrate at 100 nM
quantityName: inhibition (%)

Illustrative cases are given below, each with its answer.
COC(=O)c1cc2cc(NCc3cc(NC(=O)c4ccc(CN5CCN(C)CC5)cc4)ccc3C)cnc2[nH]1    60
COC(=O)c1cc2cc(NCc3cc(NC(=O)c4ccc5nn[nH]c5c4)ccc3C)cnc2[nH]1    69
COC(=O)c1cc2cc(NCc3cc(NC(=O)c4cncc(C)c4)ccc3C)cnc2[nH]1    95
COC(=O)c1cc2cc(NC(=O)c3cc(NC(=O)c4ccc(CN5CCN(C)CC5)cc4)ccc3C)cnc2[nH]1    71
COC(=O)c1cc2cc(/C=C/c3cc(NC(=O)c4ccc(CN5CCN(C)CC5)cc4)ccc3C)cnc2[nH]1    24

(1) COC(=O)c1cc2cc(CNc3cc(NC(=O)c4ccc(CN5CCN(C)CC5)cc4)ccc3C)cnc2[nH]1
(2) COC(=O)c1cc2cc(NCc3cc(NC(=O)c4cccc(C)c4)ccc3C)cnc2[nH]1
(3) COC(=O)c1cc2cc(NC(=O)c3cc(NC(=O)c4ccc(CN5CCC(N(C)C)C5)c(C(F)(F)F)c4)ccc3C)cnc2[nH]1 (stereo not drawn)
List items by inhibition in falling order. Order the labels as requested and list them.
2, 3, 1
(2: 74%, 3: 46%, 1: 17%)
